target_system: Inhibitor of nuclear factor kappa-B kinase subunit beta (Homo sapiens, UniProt O14920)
Sequence (O14920 whole entry): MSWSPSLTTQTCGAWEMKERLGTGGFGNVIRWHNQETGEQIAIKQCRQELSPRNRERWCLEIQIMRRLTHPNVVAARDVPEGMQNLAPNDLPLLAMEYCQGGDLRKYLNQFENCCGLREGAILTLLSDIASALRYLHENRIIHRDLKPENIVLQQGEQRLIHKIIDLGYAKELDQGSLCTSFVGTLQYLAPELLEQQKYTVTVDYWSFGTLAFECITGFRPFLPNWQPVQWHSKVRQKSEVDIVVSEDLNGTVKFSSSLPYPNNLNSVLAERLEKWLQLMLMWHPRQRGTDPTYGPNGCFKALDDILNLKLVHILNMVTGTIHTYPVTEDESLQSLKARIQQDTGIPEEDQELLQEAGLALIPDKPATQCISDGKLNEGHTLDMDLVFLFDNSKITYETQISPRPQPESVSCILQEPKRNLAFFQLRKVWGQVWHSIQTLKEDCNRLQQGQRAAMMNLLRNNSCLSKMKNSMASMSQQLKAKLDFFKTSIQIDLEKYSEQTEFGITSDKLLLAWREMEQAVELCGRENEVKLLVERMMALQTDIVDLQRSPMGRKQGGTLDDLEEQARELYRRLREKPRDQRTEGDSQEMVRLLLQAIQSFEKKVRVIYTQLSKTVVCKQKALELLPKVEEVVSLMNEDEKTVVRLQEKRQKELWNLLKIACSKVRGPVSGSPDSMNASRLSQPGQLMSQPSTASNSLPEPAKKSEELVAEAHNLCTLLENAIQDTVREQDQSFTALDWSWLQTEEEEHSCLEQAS
procedure_text: Inhibition of recombinant IKK-beta preincubated for 15 mins by HTRF assay
measurement_kind: IC50 (µM)
Numbers only, in µM.

In: Form field: reported IC50 of `O=C1Nc2ccc([N+](=O)[O-])cc2/C1=C1/Nc2ccc(O)cc2/C1=N/O`
Out: 10

* * *

Field: Residual activity. Provide a value for each of the compounds that follow.
target_system: Cyclin-dependent kinase 2/cyclin E1 (Homo sapiens) (UniProt P24864+P24941)
procedure_text: Inhibition of CDK2/cyclin E as percent residual activity
Type: protein-complex assay
Parameters: concentration or dose not given beside the values
One number for each entry, in %.

In: Form field: reported Residual activity of `O=C1Nc2ccc(Cl)cc2/C1=C1/Nc2ccc(Cl)cc2/C1=N/O`
Out: 90

// each listed compound needs a value for Residual activity
1. O=C1Nc2ccc(OC(F)(F)F)cc2/C1=C1/Nc2ccc(O)cc2/C1=N/O
2. Cc1ccc2c(c1)C(=N/O)/C(=C1/C(=O)Nc3ccc(Cl)cc31)N2
3. O=C1Nc2ccc([N+](=O)[O-])cc2/C1=C1/Nc2ccc(O)cc2/C1=N/O

Out:
90
90
90

// each listed compound needs a value for Residual activity
1. Cc1ccc2c(c1)C(=N/O)/C(=C1/C(=O)Nc3ccc(OC(F)(F)F)cc31)N2
2. O=C1Nc2ccc(F)cc2/C1=C1/Nc2ccc(Cl)cc2/C1=N/O
3. O=C1Nc2ccc(F)cc2/C1=C1/Nc2ccc(O)cc2/C1=N/O
4. Cc1ccc2c(c1)C(=N/O)/C(=C1/C(=O)Nc3ccc([N+](=O)[O-])cc31)N2
5. O=C1Nc2ccc([N+](=O)[O-])cc2/C1=C1/Nc2ccc(Cl)cc2/C1=N/O
6. O=C1Nc2ccc(Cl)cc2/C1=C1/Nc2ccc(F)cc2/C1=N/O

Out:
1: 90; 2: 90; 3: 90; 4: 90; 5: 90; 6: 90

Values compiled from ChEMBL document CHEMBL1157914.
